Where do the numbers come from? From ChEMBL document CHEMBL2057183.

Property: pIC50; scope: individual compounds
Test system: K562
assay.remarks: Cytotoxicity against human BCR-ABL positive K562 cells after 48 to 72 hrs by MTT assay
Type: functional, cell-based
Just the number, please; pIC50 means minus log10 of the concentration in mol/L.

Below are worked cases with known answers.
molecule.smiles: Cc1ccc(C(=O)Nc2ccc(N3CCOCC3)c(C(F)(F)F)c2)cc1NC(=O)/C=C/c1cccnc1
result: 7.09

molecule.smiles: Cc1ccc(C(=O)Nc2cccc(CN3CCN(C)CC3)c2)cc1NC(=O)/C=C/c1cccnc1
result: 6.24

molecule.smiles: Cc1ccc(C(=O)Nc2ccc(Cl)c(Cl)c2)cc1NC(=O)/C=C/c1cncnc1
result: 6.05

Dear colleague, I am looking for the recorded pIC50 of the following compound: Cc1ccc(C(=O)Nc2ccc(F)c(Cl)c2)cc1NC(=O)/C=C/c1cncnc1
6.02

// query pIC50 value for entry Cc1cn(-c2cc(NC(=O)c3ccc(C)c(NC(=O)/C=C/c4cccnc4)c3)cc(C(F)(F)F)c2)cn1
7.34
